Target: Nuclear receptor subfamily 1 group I member 2 (Homo sapiens) (UniProt O75469)
Sequence (O75469 whole entry, looked up): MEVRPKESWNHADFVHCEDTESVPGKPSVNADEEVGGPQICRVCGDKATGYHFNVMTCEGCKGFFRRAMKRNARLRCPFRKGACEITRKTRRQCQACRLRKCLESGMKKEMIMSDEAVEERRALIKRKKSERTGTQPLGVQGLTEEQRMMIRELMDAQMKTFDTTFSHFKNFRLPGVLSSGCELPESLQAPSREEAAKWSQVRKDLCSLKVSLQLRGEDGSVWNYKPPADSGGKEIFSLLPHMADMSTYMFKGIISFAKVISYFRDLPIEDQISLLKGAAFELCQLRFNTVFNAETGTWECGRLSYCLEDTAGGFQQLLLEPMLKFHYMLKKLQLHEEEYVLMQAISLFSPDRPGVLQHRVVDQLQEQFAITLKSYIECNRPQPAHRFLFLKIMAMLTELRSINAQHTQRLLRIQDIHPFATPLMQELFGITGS
Test: ATG_PXR_TRANS: Attagene TRANS-FACTORIAL HepG2 Assay for human Pregnane X Receptor (PXR) (AID 2283008)
Records with an inconclusive call do not appear. Active and inactive are the calls of the source. How the source made its calls: active means hit-call score of the fitted dose curve at least 0.9, where 1 is the maximum; inconclusive means response in the unintended direction; inactive means score below 0.9.

{"Molecule": "CC(=O)CC(N)=O", "AC50": "inactive"}
{"Molecule": "C=C(C)[C@H]1CC=C(C)CC1", "AC50": "inactive"}
{"Molecule": "CC(=O)OCc1ccco1", "AC50": "inactive"}
{"Molecule": "CC(=O)OCCC1CCCCC1", "AC50": "inactive"}
{"Molecule": "C=CC(=O)OCCOC(=O)C=C", "AC50": "inactive"}
{"Molecule": "S=C(NC1CCCCC1)NC1CCCCC1", "AC50": "8.05 µM (active)"}
{"Molecule": "CCN(CCO)c1cccc(C)c1", "AC50": "27 µM (active)"}
{"Molecule": "CC(C)(C)c1ccc(-c2ccc(C(C)(C)C)cc2)cc1", "AC50": "inactive"}
{"Molecule": "CCCCCCCCO[C@@H]1O[C@H](CO)[C@@H](O)[C@H](O)[C@H]1O", "AC50": "inactive"}
{"Molecule": "CC(C)=CCCC(C)C=O (stereo not drawn)", "AC50": "7.95 µM (active)"}
{"Molecule": "CC1=CC[C@H]2C[C@@H]1C2(C)C", "AC50": "inactive"}
{"Molecule": "CCCCC(CC)COC(=O)c1ccccc1 (stereo not drawn)", "AC50": "inactive"}
{"Molecule": "O=C(c1ccccc1)C1CCC1", "AC50": "inactive"}

###

Molecular target: Retinoic acid receptor alpha (Homo sapiens) (UniProt P10276)
Sequence (P10276 whole entry, looked up): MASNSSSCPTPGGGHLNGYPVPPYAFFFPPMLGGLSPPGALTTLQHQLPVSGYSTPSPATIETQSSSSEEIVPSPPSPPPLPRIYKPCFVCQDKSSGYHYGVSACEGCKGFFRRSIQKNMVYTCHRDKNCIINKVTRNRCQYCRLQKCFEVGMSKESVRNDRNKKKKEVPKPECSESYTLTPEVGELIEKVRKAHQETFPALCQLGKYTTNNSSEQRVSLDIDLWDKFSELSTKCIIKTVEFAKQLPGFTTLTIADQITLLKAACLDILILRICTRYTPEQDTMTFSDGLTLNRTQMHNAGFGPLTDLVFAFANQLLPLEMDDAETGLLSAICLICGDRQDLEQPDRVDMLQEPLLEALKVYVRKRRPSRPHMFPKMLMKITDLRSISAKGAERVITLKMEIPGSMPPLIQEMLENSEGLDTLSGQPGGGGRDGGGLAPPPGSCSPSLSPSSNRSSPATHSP
Assay: ATG_DR5_RAR_CIS: Attagene CIS-FACTORIAL HepG2 Assay for human Retinoic Acid Receptor Alpha (RARE), DR5 submotif (AID 2282934)
Conditions: HepG2 Attagene cis-factorial RARE DR5 reporter, mRNA; actives raise or lower the signal
Calls of active or inactive are those of the source. The calls were made as follows: active = hit-call score of the fitted dose curve at least 0.9, where 1 is the maximum; inactive = score below 0.9.
Outcomes: active, inactive

{"Compound": "CC(C)=CCCC(C)C=O (centres undefined)", "Class label": "inactive"}
{"Compound": "CCCCCc1ccc(Cl)cc1", "Class label": "active"}
{"Compound": "CC(=O)CC(N)=O", "Class label": "inactive"}
{"Compound": "C=C1C2CCC(C2)C1(C)C (centres undefined)", "Class label": "inactive"}

###

Test: ATG_PXRE_CIS: Attagene CIS-FACTORIAL HepG2 Assay for human Pregnane X Receptor Element (PXRE) (AID 2282957)
Details: HepG2 Attagene CIS-FACTORIAL PXRE reporter, mRNA; actives raise or lower the signal
The source made the active and inactive calls. Rule for the calls: active = hit-call score of the fitted dose curve at least 0.9, where 1 is the maximum; inactive = score below 0.9.
Outcomes: active, inactive

{"Compound": "CC(C)(C)C1CCCCC1=O (stereo unspecified)", "Class label": "active"}
{"Compound": "O=c1c2ccccc2nnn1CCl", "Class label": "active"}
{"Compound": "COC(=O)c1ccc2cc(C(=O)OC)ccc2c1", "Class label": "inactive"}
{"Compound": "CC(C)(C)c1n[nH]c(=O)n(N)c1=O", "Class label": "inactive"}
{"Compound": "CCCCCCOC(=O)C(C)CC (stereo unspecified)", "Class label": "inactive"}
{"Compound": "O=Cc1ccc(CO)o1", "Class label": "inactive"}
{"Compound": "FC(F)(F)C(=NOCC1OCCO1)c1ccc(Cl)cc1", "Class label": "active"}
{"Compound": "CCCCCc1ccc(Cl)cc1", "Class label": "inactive"}
{"Compound": "CC=CC(=O)N(CC)c1ccccc1C", "Class label": "active"}
{"Compound": "C1CN(SSN2CCOCC2)CCO1", "Class label": "inactive"}
{"Compound": "O=C(O)c1cc(Cl)cc([N+](=O)[O-])c1Cl", "Class label": "inactive"}
{"Compound": "Cc1oncc1C(=O)Nc1ccc(C(F)(F)F)cc1", "Class label": "inactive"}
{"Compound": "C=CC=CC=CCCCCC", "Class label": "active"}
{"Compound": "c1cc(N(CC2CO2)CC2CO2)ccc1OCC1CO1 (stereo unspecified)", "Class label": "inactive"}
{"Compound": "CO[Si](CCC1CCC2OC2C1)(OC)OC (stereo unspecified)", "Class label": "inactive"}
{"Compound": "O=C1CCC(=O)N1Cl", "Class label": "inactive"}
